# Target Or Test System: His-tagged canine IL-31 (interleukin 31) recombinant protein (canine)
# Protocol Text: BLI (Gator), biotinylated antibody on streptavidin probe, canine IL-31 as analyte
Quantity Measured: kon (M⁻¹ s⁻¹)

* 7475-H2K1-canIgGB (antibody, V domains shown) VH: EVQLVESGGDLVKPGGSLRLSCVASGFTFSSYAMSWIRQAPGKGLQWVAYISNGGDYIFYADTVKGRFTISRDNAKNTLYLQMNSLRAEDTAVYYCTRRGHYNTSSYWYFDVWGQGTLVTVSS VL: EIVMTQSPASLSLSQEEKVTITCKASENVGTYVSWYQQKPGQAPKLLIYGASNRYTGVPSRFSGSGSGTDFTFTISSLEPEDVAVYYCGQSYSYPPTFGAGTKVELKR | 101000
* 7475-H2K2-canIgGB (antibody, V domains shown) VH: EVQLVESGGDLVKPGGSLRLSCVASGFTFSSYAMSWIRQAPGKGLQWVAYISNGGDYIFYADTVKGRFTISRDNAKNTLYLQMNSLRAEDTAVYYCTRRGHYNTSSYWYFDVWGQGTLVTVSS VL: EIVMTQSPASLSLSQEEKVTITCKASENVGTYVSWYQQKPGQAPKLLIYGASNRYTGVPSRFSGSGSATDFTLTISSVEPEDVAVYYCGQSYSYPPTFGAGTKVELKR | 133000
* B2-H1K1-canIgGB (antibody, V domains shown) VH: EVQLVESGGDLVKPGGSLRLSCVASGFTFSDAWMDWVRQAPGKGLQWLAEIRSRAESHATYYAESVKGRFTISRDDAKNTVYLQMNSLRAEDTAVYYCTPASTMITTGWFAYWGQGTLVTVSS VL: EIVMTQTPLSLAVTPGELATISCRASQNISVYLHWYLQKPGQTPRVLIKYVSQSISGVSDRFSGSGSGSDFTLKISRVEAEDVGVYYCQNGHSFPYTFGQGTKLEIKR | 75600
* 7475-mHvKv-canIgGB (antibody, V domains shown) VH: EVKLVESGEGLVKPGGSLKLSCAASGFTFSSYAMSWVRQTPEKRLEWVAYISNGGDYIFYADTVKGRFTISRDNARNTLYLQMSSLKSEDTAMYYCTRRGHYNTSSYWYFDVWGTGTTVTVSS VL: DIVMTQSPKSMSMSVGERVTLSCKASENVGTYVSWYQQKPEQSPKLLIYGASNRYTGVPDRFTGSGSATDFTLTISSVQAEDLADYHCGQSYSYPPTFGAGTKLELKR | 250000
* B2-H1K3-canIgGB (antibody, V domains shown) VH: EVQLVESGGDLVKPGGSLRLSCVASGFTFSDAWMDWVRQAPGKGLQWLAEIRSRAESHATYYAESVKGRFTISRDDAKNTVYLQMNSLRAEDTAVYYCTPASTMITTGWFAYWGQGTLVTVSS VL: EIVMTQTPLSLSVSPGELATISCRASQNISVYLHWYQQKPGQAPKVLIKYVSQSISGVPSRFSGSGSGSDFTLTISSVEAEDVGVYYCQNGHSFPYTFGQGTKLEIKR | 89800
* 7475-H1K1-canIgGB (antibody, V domains shown) VH: EVQLVESGGDLVKPGGSLRLSCVASGFTFSSYAMSWVRQAPGKGLQWVAYISNGGDYIFYADTVKGRFTISRDNARNTLYLQMNSLRSEDTAVYYCTRRGHYNTSSYWYFDVWGQGTLVTVSS VL: EIVMTQSPASLSLSQEEKVTITCKASENVGTYVSWYQQKPGQAPKLLIYGASNRYTGVPSRFSGSGSGTDFTFTISSLEPEDVAVYYCGQSYSYPPTFGAGTKVELKR | 231000
* 6465-H3K1-canIgGB (antibody, V domains shown) VH: EVQLVESGGDLVKPGGSLRLSCVASGYSFTNYYLYWVRQAPGKGLEWVAELNPRNGGTNLNAKFKTRFTISRDNAKNMAYLQMNSLRAEDTAVYYCTRGGTTVVVRDVMDFWGQGTLVTVSS VL: EIVLTQTPLSLAVTPGELATISCRASESVDSYGNSFMHWYLQKPGQTPRLLIYRASNLESGVSDRFSGSGSRTDFTLKISRVEAEDVGVYYCQQSNEDPYTFGQGTKLEIKR | 211000
* B2-H2K3-canIgGB (antibody, V domains shown) VH: EVQLVESGGDLVKPGGSLRLSCVASGFTFSDAWMDWVRQAPGKGLEWVAEIRSRAESHATYYAESVKGRFTISRDDAKNMVYLQMNSLRAEDTAVYYCTPASTMITTGWFAYWGQGTLVTVSS VL: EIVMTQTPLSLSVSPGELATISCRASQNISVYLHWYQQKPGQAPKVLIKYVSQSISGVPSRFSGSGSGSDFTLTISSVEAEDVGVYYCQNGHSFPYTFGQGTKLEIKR | 93500
* 6465-H1K1-canIgGB (antibody, V domains shown) VH: EVQLVESGGDLVKPGGSLRLSCVASGYSFTNYYLYWVRQAPGKGLEWVGELNPRNGGTNLNAKFKTRFTISVDKAKNMAYLQMNSLRAEDTAVYYCTRGGTTVVVRDVMDFWGQGTLVTVSS VL: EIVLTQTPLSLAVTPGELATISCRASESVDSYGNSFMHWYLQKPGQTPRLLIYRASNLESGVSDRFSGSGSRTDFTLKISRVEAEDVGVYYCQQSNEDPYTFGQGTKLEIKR | 305000
* B2-H1K2-canIgGB (antibody, V domains shown) VH: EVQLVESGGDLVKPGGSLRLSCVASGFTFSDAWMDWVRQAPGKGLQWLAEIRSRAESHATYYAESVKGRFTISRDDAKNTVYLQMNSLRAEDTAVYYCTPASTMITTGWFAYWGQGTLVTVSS VL: DIVMTQTPLSLSVSPGETASISCRASQNISVYLHWYRQKPGQSPQVLIKYVSQSISGVPDRFSGSGSGSDFTLRISRVEADDTGVYYCQNGHSFPYTFGQGTKLEIKR | 82800
